# protocol summary: Therapeutic index, ratio of HC50 for Hemolytic activity in human RBC to MIC for Antibacterial activity against methicillin-resistant Staphylococcus aureus
# Format: toxicity
measure: selectivity ratio

stdin: I have this compound here, CCCCCCCCCC(=O)NCCNC(=O)c1cc(NC(=O)CN(C[C@@H](N)CCCCN)C(=O)CC23CC4CC(CC(C4)C2)C3)cc(NC(=O)CN(C[C@@H](N)CCCCN)C(=O)CC23CC4CC(CC(C4)C2)C3)c1 , and I need its recorded selectivity ratio.
stdout: > 250

---

Listed next: entries and their corresponding MIC.
# Test system: Pseudomonas aeruginosa
# protocol summary: Antibacterial activity against Pseudomonas aeruginosa assessed as bacterial growth inhibition incubated for 16 hrs by microplate reader assay
# Assay type: functional
Field: numeric (µg/mL). Do not append units.

compound	unit tag	MIC
CCCCCCCC(=O)NCCNC(=O)c1cc(NC(=O)CN(C[C@@H](N)CCCCN)C(=O)CCCCCCC)cc(NC(=O)CN(C[C@@H](N)CCCCN)C(=O)CCCCCCC)c1	µg/mL	4.5
CCCCCCNC(=O)c1cc(NC(=O)CN(C[C@@H](N)CCCCN)C(=O)CC23CC4CC(CC(C4)C2)C3)cc(NC(=O)CN(C[C@@H](N)CCCCN)C(=O)CC23CC4CC(CC(C4)C2)C3)c1	µg/mL	4.5

stdin: So what MIC did CCCCCCCCNC(=O)c1cc(NC(=O)CN(C[C@@H](N)CCCCN)C(=O)CC23CC4CC(CC(C4)C2)C3)cc(NC(=O)CN(C[C@@H](N)CCCCN)C(=O)CC23CC4CC(CC(C4)C2)C3)c1 get with Pseudomonas aeruginosa?
stdout: 19

stdin: So what MIC did CCCCCCCCCC(=O)NCCNC(=O)c1cc(NC(=O)CN(C[C@@H](N)CCCCN)C(=O)CC23CC4CC(CC(C4)C2)C3)cc(NC(=O)CN(C[C@@H](N)CCCCN)C(=O)CC23CC4CC(CC(C4)C2)C3)c1 get with Pseudomonas aeruginosa?
stdout: 2

stdin: So what MIC did O=C(O)c1cn(C2CC2)c2cc(N3CCNCC3)c(F)cc2c1=O [CIPROFLOXACIN] get with Pseudomonas aeruginosa?
stdout: 0.45

stdin: So what MIC did CCCCCCCC(=O)NCCNC(=O)c1cc(NC(=O)CN(C[C@@H](N)CCCCN)C(=O)c2ccc(-c3ccccc3)cc2)cc(NC(=O)CN(C[C@@H](N)CCCCN)C(=O)c2ccc(-c3ccccc3)cc2)c1 get with Pseudomonas aeruginosa?
stdout: 4.5

stdin: So what MIC did CCCCCCCC(=O)NCCNC(=O)c1cc(NC(=O)CN(C[C@@H](N)CCCCN)C(=O)CC23CC4CC(CC(C4)C2)C3)cc(NC(=O)CN(C[C@@H](N)CCCCN)C(=O)CC23CC4CC(CC(C4)C2)C3)c1 get with Pseudomonas aeruginosa?
stdout: 4.5
